These measurements were taken from ChEMBL document CHEMBL3232897.

Experiment notes: Selectivity index, ratio of IC50 for mouse BALB/3T3 cells to IC50 for human LoVo/DX cells
Type: functional
Measured property: Ratio IC50
Respond numerically, and do not add a unit to the figure.

CC[C@@H](C(=O)[C@@H](C)[C@@H](O)[C@H](C)[C@@H]1O[C@@H]([C@@H](CC)C(=O)NCCc2ccc(O)c(O)c2)CC[C@@H]1C)[C@H]1O[C@]2(C=C[C@@H](O)[C@]3(CC[C@@](C)([C@H]4CC[C@](O)(CC)[C@H](C)O4)O3)O2)[C@H](C)C[C@@H]1C ... 1.34

Answer with the recorded Ratio IC50 for the compound listed here: CC[C@@H](C(=O)[C@@H](C)[C@@H](O)[C@H](C)[C@@H]1O[C@@H]([C@@H](CC)C(=O)NCC2COCCOCCOCCOCCO2)CC[C@@H]1C)[C@H]1O[C@]2(C=C[C@@H](O)[C@]3(CC[C@@](C)([C@H]4CC[C@](O)(CC)[C@H](C)O4)O3)O2)[C@H](C)C[C@@H]1C (some centres not stated) 3.69

###

Experiment notes: Antiproliferative activity against human HL60/Vinc cells
Format: functional, cell-based
Recorded pIC50 for the following molecules
The quantity pIC50 is defined as the negative base-10 logarithm of the molar concentration.

COc1cccc2c1C(=O)c1c(O)c3c(c(O)c1C2=O)C[C@@](O)(C(=O)CO)C[C@@H]3O[C@H]1C[C@H](N)[C@H](O)[C@H](C)O1 ... 5.74
CC[C@@H](C(=O)[C@@H](C)[C@@H](O)[C@H](C)[C@@H]1O[C@@H]([C@@H](CC)C(=O)NCCS)CC[C@@H]1C)[C@H]1O[C@]2(C=C[C@@H](O)[C@]3(CC[C@@](C)([C@H]4CC[C@](O)(CC)[C@H](C)O4)O3)O2)[C@H](C)C[C@@H]1C ... 4.47
CC[C@@H](C(=O)[C@@H](C)[C@@H](O)[C@H](C)[C@@H]1O[C@@H]([C@@H](CC)C(=O)Nc2ccc(NC(=O)[C@H](CC)[C@H]3CC[C@H](C)[C@H]([C@@H](C)[C@H](O)[C@H](C)C(=O)[C@H](CC)[C@H]4O[C@]5(C=C[C@@H](O)[C@]6(CC[C@@](C)([C@H]7CC[C@](O)(CC)[C@H](C)O7)O6)O5)[C@H](C)C[C@@H]4C)O3)cc2)CC[C@@H]1C)[C@H]1O[C@]2(C=C[C@@H](O)[C@]3(CC[C@@](C)([C@H]4CC[C@](O)(CC)[C@H](C)O4)O3)O2)[C@H](C)C[C@@H]1C ... 4.79

Answer with the recorded pIC50 for the molecule listed here: `CC[C@@H](C(=O)[C@@H](C)[C@@H](O)[C@H](C)[C@@H]1O[C@@H]([C@@H](CC)C(=O)NCCc2c[nH]cn2)CC[C@@H]1C)[C@H]1O[C@]2(C=C[C@@H](O)[C@]3(CC[C@@](C)([C@H]4CC[C@](O)(CC)[C@H](C)O4)O3)O2)[C@H](C)C[C@@H]1C` 4.48

Answer with the recorded pIC50 for the molecule listed here: `CC[C@@H](C(=O)[C@@H](C)[C@@H](O)[C@H](C)[C@@H]1O[C@@H]([C@@H](CC)C(=O)NCCCCNC(=O)[C@H](CC)[C@H]2CC[C@H](C)[C@H]([C@@H](C)[C@H](O)[C@H](C)C(=O)[C@H](CC)[C@H]3O[C@]4(C=C[C@@H](O)[C@]5(CC[C@@](C)([C@H]6CC[C@](O)(CC)[C@H](C)O6)O5)O4)[C@H](C)C[C@@H]3C)O2)CC[C@@H]1C)[C@H]1O[C@]2(C=C[C@@H](O)[C@]3(CC[C@@](C)([C@H]4CC[C@](O)(CC)[C@H](C)O4)O3)O2)[C@H](C)C[C@@H]1C` 4.87

Answer with the recorded pIC50 for the molecule listed here: `CC[C@@H](C(=O)[C@@H](C)[C@@H](O)[C@H](C)[C@@H]1O[C@@H]([C@@H](CC)C(=O)O)CC[C@@H]1C)[C@H]1O[C@]2(C=C[C@@H](O)[C@]3(CC[C@@](C)([C@H]4CC[C@](O)(CC)[C@H](C)O4)O3)O2)[C@H](C)C[C@@H]1C` 5.33

###

Tested on: Staphylococcus epidermidis
Experiment notes: Antibacterial activity against methicillin-resistant Staphylococcus epidermidis 489/11
Assay type: functional
Measured property: MIC (µg/mL)
Answer format: numeric, µg/mL implied, no suffix.

CC[C@@H](C(=O)[C@@H](C)[C@@H](O)[C@H](C)[C@@H]1O[C@@H]([C@@H](CC)C(=O)NCCOCCO)CC[C@@H]1C)[C@H]1O[C@]2(C=C[C@@H](O)[C@]3(CC[C@@](C)([C@H]4CC[C@](O)(CC)[C@H](C)O4)O3)O2)[C@H](C)C[C@@H]1C ... 64

Answer with the recorded MIC for the compound listed here: `CC[C@@H](C(=O)[C@@H](C)[C@@H](O)[C@H](C)[C@@H]1O[C@@H]([C@@H](CC)C(=O)NCCCCN)CC[C@@H]1C)[C@H]1O[C@]2(C=C[C@@H](O)[C@]3(CC[C@@](C)([C@H]4CC[C@](O)(CC)[C@H](C)O4)O3)O2)[C@H](C)C[C@@H]1C` 32

###

Test system: Staphylococcus epidermidis
Experiment notes: Antibacterial activity against methicillin-resistant Staphylococcus epidermidis 489/11
Assay type: functional
Measured property: MIC (µg/mL)
Answer format: numeric, µg/mL implied, no suffix.

Answer with the recorded MIC for the compound listed here: `O=C(O)c1cn(C2CC2)c2cc(N3CCNCC3)c(F)cc2c1=O` 0.25

Answer with the recorded MIC for the compound listed here: `CC[C@@H](C(=O)[C@@H](C)[C@@H](O)[C@H](C)[C@@H]1O[C@@H]([C@@H](CC)C(=O)O)CC[C@@H]1C)[C@H]1O[C@]2(C=C[C@@H](O)[C@]3(CC[C@@](C)([C@H]4CC[C@](O)(CC)[C@H](C)O4)O3)O2)[C@H](C)C[C@@H]1C` 16

Answer with the recorded MIC for the compound listed here: `CC[C@@H](C(=O)[C@@H](C)[C@@H](O)[C@H](C)[C@@H]1O[C@@H]([C@@H](CC)C(=O)NCCS)CC[C@@H]1C)[C@H]1O[C@]2(C=C[C@@H](O)[C@]3(CC[C@@](C)([C@H]4CC[C@](O)(CC)[C@H](C)O4)O3)O2)[C@H](C)C[C@@H]1C` 32

###

Experiment notes: Antiproliferative activity against human LoVo/DX cells
Type: functional, cell-based
Recorded pIC50 for the following compounds
The quantity pIC50 is defined as the negative base-10 logarithm of the molar concentration.

Example cases with answers are listed next.
CC[C@@H](C(=O)[C@@H](C)[C@@H](O)[C@H](C)[C@@H]1O[C@@H]([C@@H](CC)C(=O)NCCS)CC[C@@H]1C)[C@H]1O[C@]2(C=C[C@@H](O)[C@]3(CC[C@@](C)([C@H]4CC[C@](O)(CC)[C@H](C)O4)O3)O2)[C@H](C)C[C@@H]1C ... 4.55
C#CCNC(=O)[C@H](CC)[C@H]1CC[C@H](C)[C@H]([C@@H](C)[C@H](O)[C@H](C)C(=O)[C@H](CC)[C@H]2O[C@]3(C=C[C@@H](O)[C@]4(CC[C@@](C)([C@H]5CC[C@](O)(CC)[C@H](C)O5)O4)O3)[C@H](C)C[C@@H]2C)O1 ... 5.41
COc1cccc2c1C(=O)c1c(O)c3c(c(O)c1C2=O)C[C@@](O)(C(=O)CO)C[C@@H]3O[C@H]1C[C@H](N)[C@H](O)[C@H](C)O1 ... 5.19

Answer with the recorded pIC50 for the compound listed here: `CC[C@@H](C(=O)[C@@H](C)[C@@H](O)[C@H](C)[C@@H]1O[C@@H]([C@@H](CC)C(=O)NCCOCCO)CC[C@@H]1C)[C@H]1O[C@]2(C=C[C@@H](O)[C@]3(CC[C@@](C)([C@H]4CC[C@](O)(CC)[C@H](C)O4)O3)O2)[C@H](C)C[C@@H]1C` 4.84

Answer with the recorded pIC50 for the compound listed here: `CC[C@@H](C(=O)[C@@H](C)[C@@H](O)[C@H](C)[C@@H]1O[C@@H]([C@@H](CC)C(=O)NCCc2ccc(F)cc2)CC[C@@H]1C)[C@H]1O[C@]2(C=C[C@@H](O)[C@]3(CC[C@@](C)([C@H]4CC[C@](O)(CC)[C@H](C)O4)O3)O2)[C@H](C)C[C@@H]1C` 5.64

Answer with the recorded pIC50 for the compound listed here: `CC[C@@H](C(=O)[C@@H](C)[C@@H](O)[C@H](C)[C@@H]1O[C@@H]([C@@H](CC)C(=O)NCCc2c[nH]cn2)CC[C@@H]1C)[C@H]1O[C@]2(C=C[C@@H](O)[C@]3(CC[C@@](C)([C@H]4CC[C@](O)(CC)[C@H](C)O4)O3)O2)[C@H](C)C[C@@H]1C` 4.46

Answer with the recorded pIC50 for the compound listed here: `CC[C@@H](C(=O)[C@@H](C)[C@@H](O)[C@H](C)[C@@H]1O[C@@H]([C@@H](CC)C(=O)Nc2ccc(NC(=O)[C@H](CC)[C@H]3CC[C@H](C)[C@H]([C@@H](C)[C@H](O)[C@H](C)C(=O)[C@H](CC)[C@H]4O[C@]5(C=C[C@@H](O)[C@]6(CC[C@@](C)([C@H]7CC[C@](O)(CC)[C@H](C)O7)O6)O5)[C@H](C)C[C@@H]4C)O3)cc2)CC[C@@H]1C)[C@H]1O[C@]2(C=C[C@@H](O)[C@]3(CC[C@@](C)([C@H]4CC[C@](O)(CC)[C@H](C)O4)O3)O2)[C@H](C)C[C@@H]1C` 5.55
